Target: catalytic domain of human recombinant MMP-9 (Homo sapiens)
Sequence (P14780 107-444 limits assumed): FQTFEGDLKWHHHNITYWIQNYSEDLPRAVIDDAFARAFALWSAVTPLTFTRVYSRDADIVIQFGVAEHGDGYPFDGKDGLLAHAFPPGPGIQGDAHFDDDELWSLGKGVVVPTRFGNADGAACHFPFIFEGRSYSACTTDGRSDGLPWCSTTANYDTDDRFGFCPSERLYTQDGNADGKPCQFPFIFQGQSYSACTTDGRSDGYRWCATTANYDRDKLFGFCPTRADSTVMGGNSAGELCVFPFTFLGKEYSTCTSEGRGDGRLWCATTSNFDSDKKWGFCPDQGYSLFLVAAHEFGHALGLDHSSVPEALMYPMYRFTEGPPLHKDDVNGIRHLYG
Details: slow-binding

compound | tested.on | unit.of.measurement | 10^4koff, MMP-9 catalytic domain
N[C@@H](CCC(=O)O)C(=O)Nc1ccc(Oc2ccc(S(=O)(=O)CC3CS3)cc2)cc1 (stereo partly shown) | catalytic domain of human recombinant MMP-9 (Homo sapiens) | s^−1 | 12.0
NCC(=O)Nc1ccc(Oc2ccc(S(=O)(=O)CC3CS3)cc2)cc1 (stereo not shown) | catalytic domain of human recombinant MMP-9 (Homo sapiens) | s^−1 | 6.5
Nc1ccc(Oc2ccc(S(=O)(=O)CC3CS3)cc2)cc1O (stereo not shown) | catalytic domain of human recombinant MMP-9 (Homo sapiens) | s^−1 | 5.3
NCCCC[C@H](N)C(=O)Nc1ccc(Oc2ccc(S(=O)(=O)CC3CS3)cc2)cc1 (stereo partly shown) | catalytic domain of human recombinant MMP-9 (Homo sapiens) | s^−1 | 4.2
